Molecular target: T1, TX1BP3, O14907
T1 sequence (O14907 10-122, limits assumed, looked up): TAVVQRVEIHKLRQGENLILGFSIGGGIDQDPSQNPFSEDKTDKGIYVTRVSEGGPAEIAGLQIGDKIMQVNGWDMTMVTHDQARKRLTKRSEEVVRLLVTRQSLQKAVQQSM
Experiment: holdup assay
Parameters: key: below the threshold = too weak to quantify, mostly under pKd 3.1 to 4
Conditions: plain residues with an end cap or a label only (N-terminal biotin on a linker: ttds)
The entries below are paired with their reported pKd.
measure: pKd

[[record]]
binder = "SSRTRRETQL [HPV16-E6, P03126]"
observed_result = 4.87

[[record]]
binder = "SVWLRKETRV [CYSLTR2, Q9NS75]"
observed_result = 4.75

[[record]]
binder = "GQDSREETQL [KCNT2, Q6UVM3]"
observed_result = 3.83

[[record]]
binder = "SRPQRTQTQV [HPV67-E6, A4U7F2]"
observed_result = 4.03

[[record]]
binder = "VLRLQSETSV [VANGL1, Q8TAA9]"
observed_result = 4.21

[[record]]
binder = "RSLEEEESQL [GRASP, Q7Z6J2]"
observed_result = 3.84

[[record]]
binder = "TVASEKESVM [SLC1A5, Q15758]"
observed_result = 3.69

